SYSTEM_UNDER_TEST: T1, recombinant human SOST (rhSOST) (human, UniProt Q9BQB4 24-213)
T1 construct: Treated as one molecule; also called recombinant human SOST protein; human sclerostin
T1 sequence: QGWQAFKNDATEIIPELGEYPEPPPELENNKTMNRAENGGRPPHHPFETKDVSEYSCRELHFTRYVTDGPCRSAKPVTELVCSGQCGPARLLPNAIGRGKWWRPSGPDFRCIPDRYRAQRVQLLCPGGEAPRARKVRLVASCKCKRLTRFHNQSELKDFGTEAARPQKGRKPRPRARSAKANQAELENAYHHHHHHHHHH
ASSAY_TEXT: SPR Biacore T200, IgG captured via anti-human Fc, rhSOST analyte, 37 C
Measured kon, listed per entry.
Write the quantity with the unit trailing the number.

Solved cases below.
[[record]]
binder = "DM19 (antibody, V domains shown, also called wt/mL10) VH: EVQLLESGGGLVQPGGSLRLSCAASGHTFTDYWMQWVRQAPGKGLEWIGAIYPGDGDTRYNQKFKDRFTISRDNSKNTLYLQMNSLRAEDTAVYYCARSMDYWGQGTLVTVSS VL: DIVMTQSPDSLAVSLGERATINCRASKTVDSYGNSFMHWFQQKPGQPPKLLIHHSSNLESGVPDRFSGSGSGTDFTLTISSLQAEDVAVYYCLQTIEFHYTFGQGTKLEIK"
endpoint_value = "4.06e+06 M⁻¹ s⁻¹"

[[record]]
binder = "DM34 (antibody, V domains shown, also called mH11/mL19) VH: EVQLLESGGGLVQPGGSLRLSCAASGFTFSDYWMQWVRQAPGKGLEWVGAIYPGDGDTRYNQKFKDRFTISRDNSKNTLYLQMNSLRAEDTAVYYCARSMDYWGQGTLVTVSS VL: DIVMTQSPDSLAVSLGERATINCRASKTVDSYGNSFMHWYQQKPGQPPKLLIYHSSNLESGVPDRFSGSGSGTDFTLTISSLQAEDVAVYYCLQTIEDSYTFGQGTKLEIK"
endpoint_value = "2.16e+06 M⁻¹ s⁻¹"


Alright, here's another binder for you.
Form field kon, entry DM28 (antibody, V domains shown, also called mH8/wt) VH: EVQLLESGGGLVQPGGSLRLSCAASGHTFTDYWMQWVRQAPGKGLEWIGAIYPGDGDTRYAQSVKGRFTISRDNSKNTLYLQMNSLRAEDTAVYYCARSMDYWGQGTLVTVSS VL: DIVMTQSPDSLAVSLGERATINCRASKTVDSYGNSFMHWFQQKPGQPPKLLIHHSSNLESGVPDRFSGSGSGTDFTLTISSLQAEDVAVYYCLQTIEDPYTFGQGTKLEIK : 3.52e+06 M⁻¹ s⁻¹

src = patent WO2015087187A1
